# Test system: MS2 coat protein
# experimental_details: apparent KD of MS2 coat protein; higher = weaker reporter binding
# measurement_setup: Eterna round: R107; input ligand: theophylline 20 uM
measured_metric: apparent KD of MS2 coat protein

Report apparent KD of MS2 coat protein for GGUCUCUGGAGCGAUACCAGCUUAAAUGUACUGGCCAGGUACAUGAGGAUCACCCAUGUAAGCCCUUGGCAGCGCUCCAGAGACC [#1 Exclusion - Theophylline B Attempt #13 (HarryS)]
13.8 nM

Indicate the recorded apparent KD of MS2 coat protein value for this sequence: AGUACCAAUGAGGAUACCAGAGUGCGACGCCGAAACCUUGACAUGAGGAUCACCCAUGUACUCCCUUGGCAGCCUGUACUUGCCA [theeternabot_exclusion_MS2_Theo_B_17]
40.7 nM

Give apparent KD of MS2 coat protein for UGACAUUGCUGCGAUACCAGACAUGAGGAUCACCCAUGUGCCAAAUAAACGUACAUAAAUGUCCCUUGGCAGCGCAGCAAUGUCU [MAT - Exclusion Theophlline B - Mod of Eli - D29]
112 nM

More entries:
Recall and state the measured apparent KD of MS2 coat protein for GAUGAUAUUGCAGAUACCAGACACAUGAGGAUCACCCAUGUCGUUGGGUAGCUGGGUCGUGUCCCUUGGCAGCUGCGAUAUCAUC [#05 Exclusion-TheophyllineB] .
48.2 nM

Fill in apparent KD of MS2 coat protein for record GUUAUAUACUCGGCCGCCACUGAGAGAGUCAUGUAAACAUGAGGAUCACCCAUGUAAUAUAUAUACAGGACCGGGAGUAUGGUAA [4.E]
18.6 nM

* * *

# Tested on: K4 kissing-loop RNA reporter;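 also: bound reporter read as fluorescence of individual clusters on recovered sequencing chips by microscopy, with normalized cluster intensities fitted with a binding model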
# experimental_details: apparent KD of K4 kissing-loop reporter; higher = weaker reporter binding
# measurement_setup: Eterna round: R107; input ligand: arginine 13.2 mM
Below, each entry is listed with its recorded apparent KD of K4 kissing-loop reporter.
Your answer is read as nM, so omit the unit and give the number.

The cases that follow already have their apparent KD of K4 kissing-loop reporter on record.
Determine from records and report apparent KD of K4 kissing-loop reporter for GCAGUGAUGUUGCGCAGGUACAGUGGAGUGCGAGGACCGGUACGGCCGCCACUCGUACAGAACUAGCUAAUAUAUGGAUAGGUGA [VIII]
358

Entry CUUCGUAAAGGCCCAGUGAUGUUGGGCACUCGAGGACCGGUACGGCCGCCACUCGCUCCCUAAGUCGCGCGCGUGGGCCACCGCC [Xeteoredre] needs its apparent KD of K4 kissing-loop reporter filled in; supply it.
110

Look up apparent KD of K4 kissing-loop reporter of CGAGAAUGUCGACAGUCAUCGGUCCAUGCACGAGGACCGGUACGGCCGCCACUCGAGCGUGGCAGUGAUGUUGCCAGCGCACUAA [KL-XTryp-A14] and report it.
85.1

Recall and state the measured apparent KD of K4 kissing-loop reporter for `GCCAGAGCGCGAAGGAGCGCCGUGACAGGUUGCUGCCGUGGGCAGUGAUGUUGCUCAGUCCGGCAGGUAGGUCGCGUGCUCUGGC` .
434

Identify measured apparent KD of K4 kissing-loop reporter corresponding to UGUCAUUGGUCGGCCGCCACUAGACGGACAUAAAGUCUGUCAUAAAGAGUGAUGUUCUUAAAUAAUAGGACCGGGACCGAUGACU [TrypBS 29 #SwitchBubble #StaticStem]
382

---
Query apparent KD of K4 kissing-loop reporter for AAAUAAAGCAGUCACCCAGUGAUGUUGGAAGGAGCGUGCGAAAGCACAGGUAGGUCGCCAAAACCUAAUACUGGCUGCUAAAUAA [#03 K4 Arginine A Exclusion]
357

Look up and report measured apparent KD of K4 kissing-loop reporter for this entry: UUUCGUCUCUGAGGAUAUCAGAGGAGAGUGAUGUUCUCCCAUAGCCCAGUGAUGUUGGAUGCUAUCUGAGAAGGCAGUGGGCGAA [Same State FMN B GF 13]
141

Give the reported apparent KD of K4 kissing-loop reporter for this sequence. UUUUUAUAAGAGGAUACCAGUACAAAUAAAGUACAUUAAUAGUAGAGUGAUGUUCUAAAGUACCCUUGGCAGCUUAGAUUAAGUU [ExTheophylB.D]
268

Answer with reported apparent KD of K4 kissing-loop reporter of GCAAAACGCAGUGAUGUUGCGAUAUCGGAAGGAGCGCGUGAAAACGCAGGUAGGUCGCCGAUUCAGUGAGUAUCUCGCUGUUUGC [Arginine A K4 18]
283

State its apparent KD of K4 kissing-loop reporter: AGUGAUGUUGAGUUAUCUUAGUGAAGUGAUCGAGGACCGGUACGGCCGCCACUCGAGUGAUGAGUGAGUGAUGUUUGUUUAGGGA [llkmullin]
780

Please indicate apparent KD of K4 kissing-loop reporter recorded for GCAUAGCAGACGUUGAGUGGGAGCCAGGCACGAGGACCGGUACGGCCGCCACUCGACUAGGUUUUCAGUGAUGUUGAAAAUUUAG [Exclusion Tryptophan A GF4]
141

For the sequence AACUGUCGAGGACAACAUUACUGAGGUGAUACCAGCAUCGAAAGAUGCCCUUGGCAGCACCAACUUGCAGUGAUGUUGCAAGUAA [BrourdMod 9 - Jieux - Exclusion - Theophylline A] , give its reported apparent KD of K4 kissing-loop reporter.
324

Return apparent KD of K4 kissing-loop reporter for the following sequence: CCAUCGCUAUUCGAUACCAGCUACUUAGUGAUGUUAAGUUUUUAUCCACUGUAGGUGGAAAGCCCUUGGCAGCGAAUAGUGAUGG [Theophylline B K4 26]
357

Give apparent KD of K4 kissing-loop reporter for the following sequence: `UGUGUUUACCUGACUCAGUGAUGUUGAGAAGGAGCGUGAGAAAGCACAGGUAGGUCGCUCAACCUAAAUUCAGGUGAGCACUAAA`
274

Identify measured apparent KD of K4 kissing-loop reporter corresponding to `GCCGUAGAUGGAAGGAGCGUGCGUGAAGUGAUGUUUCACGAAGAGUUUUCCACCUUAUAUGCACAGGUAGGUCGCCAUCUACGGC`
99

Given AAAAUUGCGGUCGAAUUAACUUCUUGCAUACGAGGACCGGUACGGCCGCCACUCGAGUCAAGUGAUGUUUGAUAAUCUAUUAUUA [JR_ExcTryptoA_Sub011] , respond with its apparent KD of K4 kissing-loop reporter.
258
